Record form. Attribute: growth, % of control at 10 µM. Fill in for each entry.
- Test system: UO-31
- PROCEDURE_TEXT: Cytotoxicity against human UO31 cells at 10 uM after 48 hrs by MTT assay
- Type: functional
- CONDITION: UO-31, 48 h, values are per cent of control
Answer in %, number only, no unit symbol.

Task: Please provide the recorded growth, % of control at 10 µM for `CN(C)CC(=O)Nc1ccc2c(c1)C(=O)c1cc(NC(=O)CN(C)C)ccc1C2=O` , tested on UO-31.
Output: -82.5

Task: Please provide the recorded growth, % of control at 10 µM for `O=C(CCN1CCCC1)Nc1ccc2c(c1)C(=O)c1cc(NC(=O)CCN3CCCC3)ccc1C2=O` , tested on UO-31.
Output: 5.27

Task: Please provide the recorded growth, % of control at 10 µM for `CCN(CC)CCC(=O)Nc1ccc2c(c1)C(=O)c1cc(NC(=O)CCN(CC)CC)ccc1C2=O` , tested on UO-31.
Output: -31.5

Task: Please provide the recorded growth, % of control at 10 µM for `O=C1c2ccc(NC(=O)C3CC3)cc2C(=O)c2cc(NC(=O)C3CC3)ccc21` , tested on UO-31.
Output: 95.5

Task: Please provide the recorded growth, % of control at 10 µM for `CC(=O)Nc1ccc2c(c1)C(=O)c1cc(NC(C)=O)ccc1C2=O` , tested on UO-31.
Output: 96.4

----------
- PROCEDURE_TEXT: Cytotoxicity against human H1299 cells at 10 uM after 48 hrs by MTT assay realtive to control
- Assay type: functional
- CONDITION: NCI-H1299, 48 h
Record form. Attribute: viability at 10 µM. Fill in for each entry.
Answer in %, number only, no unit symbol.

Task: # viability at 10 µM lookup, item `CN1CCN(CC(=O)Nc2ccc3c(c2)C(=O)c2cc(NC(=O)CN4CCN(C)CC4)ccc2C3=O)CC1`
Output: 71

Task: # viability at 10 µM lookup, item `O=C(CN1CCCC1)Nc1ccc2c(c1)C(=O)c1cc(NC(=O)CN3CCCC3)ccc1C2=O`
Output: 52

Task: # viability at 10 µM lookup, item `CCCCNCC(=O)Nc1ccc2c(c1)C(=O)c1cc(NC(=O)CNCCCC)ccc1C2=O`
Output: 17

Task: # viability at 10 µM lookup, item `CCCNCCC(=O)Nc1ccc2c(c1)C(=O)c1cc(NC(=O)CCNCCC)ccc1C2=O`
Output: 50

Task: # viability at 10 µM lookup, item `Nc1ccc2c(c1)C(=O)c1cc(N)ccc1C2=O`
Output: 80

Task: # viability at 10 µM lookup, item `CCCCNCCC(=O)Nc1ccc2c(c1)C(=O)c1cc(NC(=O)CCNCCCC)ccc1C2=O`
Output: 52

Task: # viability at 10 µM lookup, item `O=C1c2ccc(NC(=O)C3CC3)cc2C(=O)c2cc(NC(=O)C3CC3)ccc21`
Output: 36

Task: # viability at 10 µM lookup, item `CN(C)CC(=O)Nc1ccc2c(c1)C(=O)c1cc(NC(=O)CN(C)C)ccc1C2=O`
Output: 55

Task: # viability at 10 µM lookup, item `CC(C)NCC(=O)Nc1ccc2c(c1)C(=O)c1cc(NC(=O)CNC(C)C)ccc1C2=O`
Output: 26

Task: # viability at 10 µM lookup, item `CCCC(=O)Nc1ccc2c(c1)C(=O)c1cc(NC(=O)CCC)ccc1C2=O`
Output: 59

Task: # viability at 10 µM lookup, item `O=C(CCc1ccccc1)Nc1ccc2c(c1)C(=O)c1cc(NC(=O)CCc3ccccc3)ccc1C2=O`
Output: 94

Task: # viability at 10 µM lookup, item `O=C(CCN1CCCC1)Nc1ccc2c(c1)C(=O)c1cc(NC(=O)CCN3CCCC3)ccc1C2=O`
Output: 54

Task: # viability at 10 µM lookup, item `O=C(CCN1CCCCC1)Nc1ccc2c(c1)C(=O)c1cc(NC(=O)CCN3CCCCC3)ccc1C2=O`
Output: 44

Task: # viability at 10 µM lookup, item `O=C1c2ccc(NC(=O)C3CCCCC3)cc2C(=O)c2cc(NC(=O)C3CCCCC3)ccc21`
Output: 63

Task: # viability at 10 µM lookup, item `O=C(CCl)Nc1ccc2c(c1)C(=O)c1cc(NC(=O)CCl)ccc1C2=O`
Output: 5

Task: # viability at 10 µM lookup, item `CCNCCC(=O)Nc1ccc2c(c1)C(=O)c1cc(NC(=O)CCNCC)ccc1C2=O`
Output: 59

Task: # viability at 10 µM lookup, item `CCNCC(=O)Nc1ccc2c(c1)C(=O)c1cc(NC(=O)CNCC)ccc1C2=O`
Output: 24

Task: # viability at 10 µM lookup, item `CCN(CC)CCC(=O)Nc1ccc2c(c1)C(=O)c1cc(NC(=O)CCN(CC)CC)ccc1C2=O`
Output: 41

Task: # viability at 10 µM lookup, item `O=C1c2ccc([N+](=O)[O-])cc2C(=O)c2cc([N+](=O)[O-])ccc21`
Output: 95

----------
Record form. Attribute: growth, % of control at 10 µM. Fill in for each entry.
- System: SK-MEL-2
- PROCEDURE_TEXT: Cytotoxicity against human SK-MEL-2 cells at 10 uM after 48 hrs by MTT assay
- Type: functional
- CONDITION: SK-MEL-2, 48 h, values are per cent of control
Answer in %, number only, no unit symbol.

Task: Please provide the recorded growth, % of control at 10 µM for `CC(=O)Nc1ccc2c(c1)C(=O)c1cc(NC(C)=O)ccc1C2=O` , tested on SK-MEL-2.
Output: 30.1

Task: Please provide the recorded growth, % of control at 10 µM for `O=C(CCN1CCCC1)Nc1ccc2c(c1)C(=O)c1cc(NC(=O)CCN3CCCC3)ccc1C2=O` , tested on SK-MEL-2.
Output: -45.2

Task: Please provide the recorded growth, % of control at 10 µM for `CCN(CC)CCC(=O)Nc1ccc2c(c1)C(=O)c1cc(NC(=O)CCN(CC)CC)ccc1C2=O` , tested on SK-MEL-2.
Output: -60.4

Task: Please provide the recorded growth, % of control at 10 µM for `O=C1c2ccc(NC(=O)C3CC3)cc2C(=O)c2cc(NC(=O)C3CC3)ccc21` , tested on SK-MEL-2.
Output: 16.9

Task: Please provide the recorded growth, % of control at 10 µM for `CN(C)CC(=O)Nc1ccc2c(c1)C(=O)c1cc(NC(=O)CN(C)C)ccc1C2=O` , tested on SK-MEL-2.
Output: -30.4

----------
- EXPERIMENTAL_TARGET: Telomerase reverse transcriptase (Homo sapiens)
- Sequence (O14746 whole entry): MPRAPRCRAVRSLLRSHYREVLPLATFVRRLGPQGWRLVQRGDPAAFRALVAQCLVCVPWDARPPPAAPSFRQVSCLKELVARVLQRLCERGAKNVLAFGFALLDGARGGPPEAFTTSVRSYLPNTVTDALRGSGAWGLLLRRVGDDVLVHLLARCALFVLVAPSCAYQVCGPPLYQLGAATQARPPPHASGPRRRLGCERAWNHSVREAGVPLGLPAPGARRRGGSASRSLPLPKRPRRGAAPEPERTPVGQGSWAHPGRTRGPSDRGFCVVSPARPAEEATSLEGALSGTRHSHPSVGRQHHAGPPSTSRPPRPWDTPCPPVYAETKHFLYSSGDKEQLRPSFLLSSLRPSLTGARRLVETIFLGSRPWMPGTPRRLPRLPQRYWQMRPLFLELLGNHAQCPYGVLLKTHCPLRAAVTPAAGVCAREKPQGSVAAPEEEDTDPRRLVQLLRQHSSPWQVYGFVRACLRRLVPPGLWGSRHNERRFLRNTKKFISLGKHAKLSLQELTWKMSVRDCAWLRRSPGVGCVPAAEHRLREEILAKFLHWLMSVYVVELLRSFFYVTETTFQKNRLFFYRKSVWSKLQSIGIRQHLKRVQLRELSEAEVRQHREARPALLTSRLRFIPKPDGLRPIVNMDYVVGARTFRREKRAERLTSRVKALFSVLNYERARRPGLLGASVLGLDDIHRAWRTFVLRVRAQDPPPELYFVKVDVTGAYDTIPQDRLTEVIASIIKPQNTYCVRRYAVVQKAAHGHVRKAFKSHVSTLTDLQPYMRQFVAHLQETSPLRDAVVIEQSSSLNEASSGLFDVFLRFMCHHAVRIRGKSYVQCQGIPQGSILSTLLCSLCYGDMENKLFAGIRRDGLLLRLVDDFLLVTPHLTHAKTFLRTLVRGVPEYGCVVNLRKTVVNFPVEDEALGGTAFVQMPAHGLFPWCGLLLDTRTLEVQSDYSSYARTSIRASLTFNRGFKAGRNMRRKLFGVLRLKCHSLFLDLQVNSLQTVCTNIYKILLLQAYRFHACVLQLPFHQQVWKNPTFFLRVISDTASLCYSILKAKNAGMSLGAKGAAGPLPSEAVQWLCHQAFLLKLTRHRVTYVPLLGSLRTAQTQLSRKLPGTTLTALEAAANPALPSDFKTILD
- PROCEDURE_TEXT: Effect on human TERT expressed in H1299 cells at 100 uM after 24 hrs by SEAP assay relative to control
Record form. Attribute: residual activity. Fill in for each entry.
Answer in %, number only, no unit symbol.

Task: # residual activity lookup, item `CC(C)CNCC(=O)Nc1ccc2c(c1)C(=O)c1cc(NC(=O)CNCC(C)C)ccc1C2=O`
Output: 26

Task: # residual activity lookup, item `O=C(CCc1ccccc1)Nc1ccc2c(c1)C(=O)c1cc(NC(=O)CCc3ccccc3)ccc1C2=O`
Output: 61

Task: # residual activity lookup, item `CCCC(=O)Nc1ccc2c(c1)C(=O)c1cc(NC(=O)CCC)ccc1C2=O`
Output: 83

Task: # residual activity lookup, item `CCN(CC)CC(=O)Nc1ccc2c(c1)C(=O)c1cc(NC(=O)CN(CC)CC)ccc1C2=O`
Output: 37

Task: # residual activity lookup, item `O=C(CCN1CCNCC1)Nc1ccc2c(c1)C(=O)c1cc(NC(=O)CCN3CCNCC3)ccc1C2=O`
Output: 71

Task: # residual activity lookup, item `Nc1ccc2c(c1)C(=O)c1cc(N)ccc1C2=O`
Output: 63

Task: # residual activity lookup, item `CCCCNCC(=O)Nc1ccc2c(c1)C(=O)c1cc(NC(=O)CNCCCC)ccc1C2=O`
Output: 20

Task: # residual activity lookup, item `CN1CCN(CCC(=O)Nc2ccc3c(c2)C(=O)c2cc(NC(=O)CCN4CCN(C)CC4)ccc2C3=O)CC1`
Output: 21

Task: # residual activity lookup, item `O=C(Cc1ccccc1)Nc1ccc2c(c1)C(=O)c1cc(NC(=O)Cc3ccccc3)ccc1C2=O`
Output: 80

----------
- Tested on: SF-268
- PROCEDURE_TEXT: Cytotoxicity against human SF268 cells at 10 uM after 48 hrs by MTT assay
- Assay type: functional
- CONDITION: SF-268, 48 h, values are per cent of control
Classify: satisfied when growth, % of control at 10 µM is strictly less than 60%; not satisfied when growth, % of control at 10 µM is not.

Task: Strictly below 60% in growth, % of control at 10 µM? `CCN(CC)CCC(=O)Nc1ccc2c(c1)C(=O)c1cc(NC(=O)CCN(CC)CC)ccc1C2=O`
Output: satisfied

Task: Strictly below 60% in growth, % of control at 10 µM? `CC(=O)Nc1ccc2c(c1)C(=O)c1cc(NC(C)=O)ccc1C2=O`
Output: not satisfied

Task: Strictly below 60% in growth, % of control at 10 µM? `CN(C)CC(=O)Nc1ccc2c(c1)C(=O)c1cc(NC(=O)CN(C)C)ccc1C2=O`
Output: not satisfied

Task: Strictly below 60% in growth, % of control at 10 µM? `O=C1c2ccc(NC(=O)C3CC3)cc2C(=O)c2cc(NC(=O)C3CC3)ccc21`
Output: not satisfied

Task: Strictly below 60% in growth, % of control at 10 µM? `O=C(CCN1CCCC1)Nc1ccc2c(c1)C(=O)c1cc(NC(=O)CCN3CCCC3)ccc1C2=O`
Output: satisfied
